# target.under.test: Solute carrier family 2, facilitated glucose transporter member 1 (Homo sapiens)
# assay.name: ST_JUDE_LEISH: Cytotoxicity at 2uM final concentration against transgenic Leishmania Mexicana promastigotes LmGLUT1 that are glucose transport deficient and complemented with the human glucose transporter GLUT1. Activity is measured by DNA content using SYBR green in vitro
# Format: functional
recorded.metric: inhibition (%)

molecule	obs.value
CCc1cn2c3c(cc(C(=O)N[C@@H](Cc4cc(F)cc(F)c4)[C@H](O)CNC4CCOCC4)cc13)N(C)S(=O)(=O)CC2	0.86
CC(C)[C@H](NCC(=O)c1ccccc1)C(=O)O	-0.14
Fc1ccc(C=NN=c2cc[nH]c3ccc(C(F)(F)F)cc23)cc1	6.39
COc1cccc(-c2nc(Nc3ccncc3)c3ncn(C)c3n2)c1	3.21
COc1ccc2[nH]cc(C3CCN(CCCCNC(=O)c4ccc(NC(=O)c5ccc(Cl)cc5)cc4)CC3)c2c1	4.59
CCNc1cc(C(=O)N[C@@H](Cc2ccccc2)[C@H](O)CN[C@@H](C)c2ccccc2)cc(N2CCCC2=O)c1	1.35
O=C(/C=C/c1ccc(Cl)c(Cl)c1)NCCCCCN1CCC(NC(=S)Nc2ccc(F)cc2F)CC1	16.5
CN1CCN(Cc2cccc(-c3ccc4c(Nc5ccc(Oc6ccccc6)cc5)ccnc4c3)c2)CC1	12.9
CCC(C)CNC(=O)CN1CN(c2ccccc2)C2(CCN(C(=O)c3ccc(Br)cc3)CC2)C1=O (centres undefined)	0.35

====

# target.under.test: Hexose transporter 1 (Plasmodium falciparum)
# assay.name: ST_JUDE_LEISH: Cytotoxicity at 2uM final concentration against transgenic Leishmania Mexicana promastigotes LmPfHT that are glucose transport deficient and complemented with the Plasmodium falciparum hexose transporter. Activity is measured by DNA content using SYBR green in vitro
# Type: functional
In this section, each of the molecules is paired with its reported inhibition.
recorded.metric: inhibition (%)

molecule	readout.units	obs.value
Fc1ccc2[nH]c(-c3ccc(-c4cccc(CN5CCN(c6ccncc6)CC5)c4)cc3)nc2c1	%	1.42
CN1CCCC1CCNCc1ccc(-c2ccc(CNCCc3ccccc3)cn2)cc1 (stereo not given)	%	2.41
CC[C@H]1CN(Cc2ccco2)CC[C@H]1CCCc1ccnc2ccc(O)cc12	%	4.86
O=[N+]([O-])c1ccc(C(O)CNCCc2ccccc2)cc1OCc1ccccc1 (stereo not given)	%	14
O=C(CCn1c2ccccc2c2ccccc21)NN=Cc1ccco1	%	5.11

====

# target.under.test: Hexose transporter 1 (Plasmodium falciparum) (UniProt O97467)
# assay.name: ST_JUDE_LEISH: Cytotoxicity at 2uM final concentration against transgenic Leishmania Mexicana promastigotes LmPfHT that are glucose transport deficient and complemented with the Plasmodium falciparum hexose transporter. Activity is measured by DNA content using SYBR green in vitro
# Type: functional

compound	inhibition, %
CC(C)c1cc(Oc2c(I)cc(CCCc3ncc[nH]3)cc2I)ccc1O	9.42
COc1cccc(OC)c1C(=O)Nc1cccc(-c2nn3ccccc3c2-c2ccnc(Nc3cccc(F)c3)n2)c1	9.03
NC(=O)COc1c(C2CCN(CCCCNC(=O)c3ccc(-c4ccc(Cl)cc4)c(O)c3)CC2)ccc2c1CCCC2	2.57
Cc1cccc2nc(-c3cccc(-c4cccc(NC(=O)Nc5ccc(Cl)c(Cl)c5)c4)c3)[nH]c12	-0.17
Nc1c2c(nc3ccc(NC(=O)Cc4ccccc4)cc13)CCCC2	5.7
CCc1ccc(-c2cnc(N)c3cc(-c4ccnc(N)n4)ccc23)cc1	-4.63
OCC1CCN(Cc2cccc(-c3ccc(-c4nc5cc(F)ccc5[nH]4)cc3)c2)CC1	-0.04
CC[C@H](N/C(=N\c1ccc(-c2ccccc2)cc1)Nc1ccc(C#N)cc1O)c1ccccc1	3.4
N#CC1(c2ccccc2)CCN(c2nc(NCCCN3CCCC3=O)nc(N3CCCC4CCCCC43)n2)CC1 (centres undefined)	2.3

====

In this section, each of the molecules is paired with its reported inhibition.
# target.under.test: Solute carrier family 2, facilitated glucose transporter member 1 (Homo sapiens)
# assay.name: ST_JUDE_LEISH: Cytotoxicity at 2uM final concentration against transgenic Leishmania Mexicana promastigotes LmGLUT1 that are glucose transport deficient and complemented with the human glucose transporter GLUT1. Activity is measured by DNA content using SYBR green in vitro
# Format: functional

molecule	inhibition, %
CCNC[C@H]1CCCN1CCOc1ccc(-n2cnc3cc(-c4ccc(Cl)cc4)sc3c2=O)cc1OC	-0.44
O=C(Nc1ccccc1)Nc1ccc(-c2cccc(-c3nc4cc(C(F)(F)F)ccc4[nH]3)c2)cc1	4.44
O=C(NCCCCN1CCC(c2ccc(OC(F)(F)F)cc2)CC1)c1ccc(NC(=O)c2ccc(Cl)cc2)cc1	-1.27
Cc1cccc2nc(-c3ccc(-c4cccc(NC(=O)C(=O)c5cccn5C)c4)cc3)[nH]c12	4.58
CNC(=O)c1cnc(Nc2ccc(N3CCN(C)CC3)cc2)nc1Nc1cccc(OC(C)C)c1	3.75
COc1cccc2c(Nc3ccccc3C)nc(Nc3ccccc3C)nc12	19.6
Cc1nc2nc(N)nc(N)c2c(C)c1Cc1cccs1	1.85
COc1ccc2nccc([C@@H](O)CN3CCC(NCc4cc5cc(OC(F)(F)F)ccc5[nH]4)CC3)c2c1	9.94
CN(C)C(C)(C)CN(Cc1ccc(-c2ccc(C(F)(F)F)cc2)cc1)C(=O)Cn1c(CCc2cccc(F)c2F)nc(=O)c2ccccc21	1.52
O=C(Nc1ccc2c(c1)CCN2C1CCN(Cc2ccc(C(F)(F)F)cc2F)C1)c1ccco1 (stereo not drawn)	1.38
O=C(N[C@@H](CC1CCCCC1)C(=O)NC1CCCCC1)c1ccc(O)c(-c2cccc(C(F)(F)F)c2)c1	-2.73
Cc1c(C)n(C2CCCCC2)c2ncnc(OC3CCN(CC(=O)NC4CC4)CC3)c12	-0.52
COc1ccc2oc(=O)c(C#N)c(O)c2c1	-0.47
CC(C)[C@H](NC(=O)NC1CCC(CCN2C3CCC2CC(OC(=O)C(CO)c2ccccc2)C3)CC1)C(O)(c1ccccc1)c1ccccc1 (stereo partly drawn)	3.62
S=C(NN=Cc1ccccn1)NC1CC2C=CC1C2 (stereo not drawn)	10
COc1ccc(NC(=O)[C@H](Cc2ccccc2)Nc2cc(C)nc(NCCc3cccnc3)n2)cc1	-0.56
CC1(CCCCN2CCC(Oc3ccc(F)cc3F)CC2)C(=O)Nc2ccccc21 (stereo not drawn)	3.9
Cc1ccc(NC(=O)Nc2ccc(Cl)c(C(F)(F)F)c2)cc1-c1ccc(C(=O)Nc2ccncc2)cc1	3.55
COc1ccccc1C1CCN(CCCCNC(=O)c2ccc(NC(=O)c3ccc(Cl)cc3)cc2)CC1	1.27
CCCCCCCCNCC(O)c1cc(-c2ccc(Cl)cc2)nc2cc(C)ccc12 (stereo not drawn)	3.01
CN1CCN(Cc2cccc(-c3ccc4c(Nc5cc(O)c(Cl)cc5F)ccnc4c3)c2)CC1	2.16
CCCCCCCOc1ccc(NC(=O)Nc2ccc(Cn3ncc(N4CCCNCC4)c(Cl)c3=O)cc2)cc1	-2.91
O=C(NC1CC1)c1ccc(N2CCCC(COc3ccccc3F)C2)nc1 (stereo not drawn)	2.73
COc1cc(Nc2ncc3c(C)nc(-c4cccc(Nc5ccc(CN6CCS(=O)(=O)CC6)cc5)c4)n3n2)cc(OC)c1OC	14
O=C(Nc1ccccc1)N(Cc1ccc(-c2cccc(CNCc3ccc4c(c3)OCO4)c2)cc1)C1CCN(Cc2ccccc2)CC1	-0.01
Oc1ccc2[nH]c(-c3cccc(F)c3)nc2c1CN1CCC(O)(c2ccccc2)CC1	3.21
CC(C)c1ccc(NC(=O)c2ccc(CN3CCCN(Cc4cccc(Cl)c4)CC3)cc2)cc1	0.69
Cc1cccc2nc(-c3cccc(-c4ccc(NC(=O)COc5ccccc5C(N)=O)cc4)c3)[nH]c12	4.4
C=CCOC(=O)N1CCC(CNCc2ccc(-c3cccc(-c4nc5ccccc5[nH]4)c3)cc2)C1 (stereo not drawn)	3.24
CN(C)Cc1cccc(-c2cnc(N)c(-c3nc4cc(S(C)(=O)=O)ccc4[nH]3)c2)c1	2.57
CCCCCCCCc1c(C)nc(C)c(C#N)c1O	5.8
O=C(Nc1ccccc1)c1ccc(N2CCC(COc3cccc(C(F)(F)F)c3)CC2)nc1	1.05
COc1ccc2c(NN=Cc3ccc(F)cc3)ccnc2c1	1.29
OCCCCCCNc1ccnc2[nH]c3ccc(I)cc3c12	8.64
CN(C)S(=O)(=O)n1ncc2c3c(N)nc(N)nc3ccc21	0.68
COc1ccc2[nH]c(C)cc(=NN=Cc3ccncc3)c2c1	3.45
COc1ccccc1Oc1c(N(C)S(=O)(=O)c2ccc(C(C)C)cc2)nc(C(F)(F)F)nc1N(C)S(=O)(=O)c1ccc(C(C)C)cc1	0.63
CC1(C)CNCc2cc(NC(=O)/C=C/c3ccc(Cl)cc3)ccc21	0.41

====

In this section, each of the compounds is paired with its reported inhibition.
# target.under.test: Solute carrier family 2, facilitated glucose transporter member 1 (Homo sapiens) (UniProt P11166)
# Sequence (P11166 whole entry): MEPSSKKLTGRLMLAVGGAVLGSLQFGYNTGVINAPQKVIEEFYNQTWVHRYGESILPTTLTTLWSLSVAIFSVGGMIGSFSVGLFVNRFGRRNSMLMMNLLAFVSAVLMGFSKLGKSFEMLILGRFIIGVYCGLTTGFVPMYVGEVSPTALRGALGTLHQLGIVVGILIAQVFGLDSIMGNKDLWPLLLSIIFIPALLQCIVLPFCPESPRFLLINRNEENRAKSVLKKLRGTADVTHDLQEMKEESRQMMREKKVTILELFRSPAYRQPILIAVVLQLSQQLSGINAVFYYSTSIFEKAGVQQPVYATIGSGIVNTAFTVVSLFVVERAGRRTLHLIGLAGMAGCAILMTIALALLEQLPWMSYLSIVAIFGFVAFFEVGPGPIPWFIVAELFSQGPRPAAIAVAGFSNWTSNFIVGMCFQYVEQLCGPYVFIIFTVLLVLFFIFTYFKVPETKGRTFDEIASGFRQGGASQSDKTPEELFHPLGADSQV
# assay.name: ST_JUDE_LEISH: Cytotoxicity at 2uM final concentration against transgenic Leishmania Mexicana promastigotes LmGLUT1 that are glucose transport deficient and complemented with the human glucose transporter GLUT1. Activity is measured by DNA content using SYBR green in vitro
# Type: functional

compound	readout.units	inhibition
N#Cc1cccc(-c2nc(NCc3cccc(C(F)(F)F)c3)nn2-c2cccc(C(F)(F)F)c2)c1	%	1.68
COc1ccc2nccc(N3CCC(NCCNCc4ccc5c(n4)NC(=O)CO5)C3)c2n1 (centres undefined)	%	1.29
Cn1nc(C(F)(F)F)c(-c2ccc(Br)cc2)c1NC(=O)Nc1ccc(F)cc1F	%	1.12
CN1CCN(c2ccnc3ccc(NC(=O)Nc4ccc(Cl)c(Cl)c4)cc23)CC1	%	6.24
CCOc1cc(C=Cc2nc(O)c3ccccc3n2)cc(Cl)c1O	%	5.1
CCOc1ccc(N2C(N)=NC(N)=NC2(C)C)cc1	%	4.38
CC(=O)Nc1nc(C(=O)Nc2cccc(-c3ccc(-c4nc5cccc(C)c5[nH]4)cc3)c2)cs1	%	8.06
O=C(Nc1ccc2c(c1)CCN2C1CCN(Cc2cccc3cc[nH]c23)C1)c1ccco1 (centres undefined)	%	0.46
CCc1cn2c3c(cc(C(=O)N[C@@H](Cc4ccccc4)[C@H](O)CNC4CCOCC4)cc13)N(C(C)C)S(=O)(=O)CC2	%	-1.49
O=C(NC1CC1)c1ccc(N2CCC(Cc3ccccc3)CC2)nc1	%	3.46
CCNc1cc(C(=O)N[C@@H](Cc2ccoc2)[C@H](O)CNC(C)CCCC(C)C)cc(N2CCCCS2(=O)=O)c1 (some centres undefined)	%	1.42
Cc1cc(O)c(-c2ccc(Sc3ccc(Cl)cc3)cc2)c(C)n1	%	-0.64
COc1ccc2cc(-c3nc(-c4c(Cl)cccc4Cl)[nH]c3-c3ccnc(NCCC4CCCN4C)c3)ccc2c1 (centres undefined)	%	29.7
Oc1ccccc1CN1CCC2(CCCN(Cc3ccccc3F)C2)C1 (centres undefined)	%	2.03
CS(=O)(=O)c1ccc(CCNCc2ccc(-c3cccc(-c4nc5ccccc5[nH]4)c3)cc2)cc1	%	1.41
CC(NCCc1cccc(Cl)c1)C(O)c1ccc(OCCCCCCOc2ccc(C(O)C(C)NCCc3cccc(Cl)c3)cc2)cc1 (centres undefined)	%	38.2
O=C(Nc1ccc(-c2nc3ccccc3[nH]2)cc1)c1ccc(N2CCOCC2)c([N+](=O)[O-])c1	%	-0.45
CCN(CC)CCN(Cc1ccc(-c2ccc(C(F)(F)F)cc2)cc1)C(=O)Cn1c(CCc2ccc(F)cc2)nc(=O)c2ccccc21	%	2.98
CC(=O)Nc1cccc(C(=O)Nc2cccc(-c3ccc(-c4nc5cccc(C)c5[nH]4)s3)c2)c1	%	3.54
